# maps each entry to its melting point

structure_string=COC(=O)[C@H](Cc1ccc(NC=O)cc1)NC(C)=O recorded_measurement="126 °C"
structure_string=O=C1c2c(O)cccc2C(O)(c2cccc(C(F)(F)F)c2)c2cccc(O)c21 recorded_measurement="222 to 223 °C"
structure_string=CCOC(=O)CCC(=O)c1ccc(CCNS(=O)(=O)c2cccc(Cl)c2)cc1 recorded_measurement="64 to 66 °C"
structure_string=NC(=O)c1cccc(-c2ccc(Oc3ccccc3)cc2)n1 recorded_measurement="178 to 180 °C"
structure_string=C#CCSC(=NC(=O)OC)NC(=O)Nc1ccc(C)cc1 recorded_measurement="161 to 162 °C"

Could you now look at the following compound, please?
Field request: melting point | item: `COC(=O)c1ccnc(Nc2cc(OC)cc(C(F)(F)F)c2)c1`
178 to 179 °C
